Measured GI50, listed per entry.
- Test system: A498
- TEST_PROTOCOL: NCI tumour cell line growth inhibition, 48 h
The source made the active and inactive calls. No stated cut-off is given here; in the data, active = GI50 up to about 1.1 µM and inactive = higher.

Observe how each entry below is paired with its result.
>>> reported("CC1=C(C(=O)Nc2ccccc2)C(c2ccc(C3C(C(=O)Nc4ccccc4)=C(C)NC(C)=C3C(=O)Nc3ccccc3)cc2)C(C(=O)Nc2ccccc2)=C(C)N1")
"8.99 µM (inactive)"
>>> reported("Cc1c(OCCCOc2ccc3c(=O)cc(-c4ccccc4)oc3c2C)ccc2c(=O)cc(-c3ccccc3)oc12")
"> 100 µM (inactive)"
>>> reported("Cc1c(C)c(CC(=O)N2CC2)c(C)c(C)c1CC(=O)N1CC1")
"16 µM (inactive)"
>>> reported("Cc1ccccc1C(=O)c1cc(O)ccc1O")
"> 100 µM (inactive)"
>>> reported("CC(C)C(=O)N1Cc2cc(Cl)cc(Cl)c2OC(=O)c2ccccc21")
"27.5 µM (inactive)"
>>> reported("Cc1nc2c(ccc3[nH]c4ccccc4c32)s1")
"17.8 µM (inactive)"
>>> reported("O=C1O[C@@H](c2ccc3c(c2)OCO3)C2C(=O)O[C@@H](c3ccc4c(c3)OCO4)C12 (stereo partly specified)")
"> 100 µM (inactive)"
>>> reported("NCCSCCc1ccccc1")
"> 100 µM (inactive)"

Query (compound): CC(=O)Nc1ccc(Nc2cc(=O)n(C)c(=O)[nH]2)cc1 ; field requested: GI50
> 100 µM (inactive)

Query (compound): CC1=CCC[C@]2(C)C1=CC(=O)O[C@H]2c1ccoc1 ; field requested: GI50
> 100 µM (inactive)

Query (compound): Nc1ncc2c(n1)-c1ccccc1OC2NC1CC1 (stereo unspecified) ; field requested: GI50
> 100 µM (inactive)
